Tested on: HepG2
experimental-protocol: cytotoxicity call (relative viability < 0.9)
assay-conditions: 10 µM
Among all 39,000 compounds or so, about 3,300 (8.5%) were called active. The sample holds actives, similar compounds and a random draw of the others, so the mix is not that of the screen.
Outcome field: choose from TRUE (active), FALSE (inactive)

Solved entries:
mol-smiles | category-label
O=C(O)C[C@H]1Oc2ccccc2NC1=O | FALSE
Cc1noc(C)c1NC(=O)N[C@@H]1C=C[C@@H](CC(=O)N2CCN(C)CC2)O[C@H]1CO | FALSE

# fetch the recorded call for C[N+]1(C)C[C@H](O)[C@H](C(=O)O)C1 here
TRUE
